- Test system: CCRIS mutagenicity, Ames/micronucleus/aberration tests
- MEASUREMENT_DESCRIPTION: CCRIS mutagenicity studies
- TEST_SETTINGS: Test System: AMES SALMONELLA TYPHIMURIUM; Strain/Indicator: TA100; Metabolic Activation: RAT, LIVER, S-9, POLYCHLORINATED BIPHENYLS; Method: PREINCUBATION
Calls of active or inactive are those of the source. The rule behind the calls is not given here.
Outcome codes: yes = active, no = inactive

> print(dat)
                              smiles.record  cat
1                  Cc1cc(N=Nc2ccccc2C)ccc1N  yes
2                      N#[N+]c1ccc([O-])cc1  yes
3                     c1ccc(N=Nc2ccccc2)cc1  yes
4  CC(=O)N(C)c1ccc(N=Nc2ccc(N(C)C(C)=O)cc2)cc1   no

###

- System: CCRIS mutagenicity, Ames/micronucleus/aberration tests
- MEASUREMENT_DESCRIPTION: CCRIS mutagenicity studies
- TEST_SETTINGS: Test System: AMES SALMONELLA TYPHIMURIUM; Strain/Indicator: TA1537; Metabolic Activation: HAMSTER, LIVER, S-9, AROCLOR 1254 (10%); Method: PREINCUBATION
Active and inactive are the calls of the source. How the calls were made is not given here.
Outcome codes: label 1 for active, label 0 for inactive

> print(dat)
                                    compound      cat
 1                       Oc1c(Br)cc(Br)cc1Br  label 0
 2  NC(Cc1ccc(F)cc1)C(=O)O (centres undefined)  label 0
 3  CCN(CC)c1ccc2c(-c3ccccc3C(=O)O)c3ccc(=[N+](CC)CC)cc-3oc2c1  label 0
 4                                NCCNCCNCCN  label 1
 5                                 COCCOCCOC  label 0
 6   NS(=O)(=O)c1cc(C(=O)O)c(NCc2ccco2)cc1Cl  label 0
 7           CCCCC(CC)CO (centres undefined)  label 0
 8     Nc1ccc(Cc2ccc(N)c(Cc3ccc(N)cc3)c2)cc1  label 1
 9                  COC(=O)c1ccc(C(=O)OC)cc1  label 0
10                               ClCc1ccccc1  label 0
11                    c1cnc2c(c1)ccc1cccnc12  label 0
12  CCCCCCCC/C=C/CCCCCCCC(=O)OCCOCC(OCCO)C1OCC(OCCO)C1OCCO (centres undefined)  label 0
13  COC(=O)C(c1ccccc1)C1CCCCN1 (centres undefined)  label 0
14  COc1cc(/C=C/C(=O)CC(=O)/C=C/c2ccc(O)c(OC)c2)ccc1O  label 0

###

- Tested on: CCRIS mutagenicity, Ames/micronucleus/aberration tests
- MEASUREMENT_DESCRIPTION: CCRIS mutagenicity studies
- TEST_SETTINGS: Test System: AMES SALMONELLA TYPHIMURIUM; Strain/Indicator: TA1530; Metabolic Activation: NONE; Method: STANDARD PLATE
Calls of active or inactive are those of the source. The rule behind the calls is not given here.
Outcome codes: TRUE (active), FALSE (inactive)

> print(dat)
                                   molecule                                       tgt    cat
1  CC(N)(CN=[N+]=[N-])C(=O)O (centres undefined)  CCRIS mutagenicity, Ames/micronucleus/aberration tests   TRUE
2  C1CCC(C2(C3CCCCC3)COCCOCCOCCOCCOCCOCCO2)CC1  CCRIS mutagenicity, Ames/micronucleus/aberration tests  FALSE
3                                    CN(C)N  CCRIS mutagenicity, Ames/micronucleus/aberration tests   TRUE
4         O=C1NC(=O)C(c2ccccc2)(c2ccccc2)N1  CCRIS mutagenicity, Ames/micronucleus/aberration tests  FALSE

###

- Tested on: CCRIS mutagenicity, Ames/micronucleus/aberration tests
- MEASUREMENT_DESCRIPTION: CCRIS mutagenicity studies
- TEST_SETTINGS: Test System: AMES SALMONELLA TYPHIMURIUM; Strain/Indicator: TA1535; Metabolic Activation: NONE
The source made the active and inactive calls. How the calls were made is not given here.
Outcome codes: Yes = active, No = inactive

> print(dat)
                                   compound  cat
1  O=[N+]([O-])c1ccc2c3c(ccc([N+](=O)[O-])c13)-c1ccccc1-2   No
2  Cc1c(C(=O)O)c(O)cc2c1C(=O)c1c(O)c([C@@H]3O[C@H](CO)[C@@H](O)[C@H](O)[C@H]3O)c(O)c(O)c1C2=O   No
3  COc1cccc2c1cc([N+](=O)[O-])c1c(C(=O)O)cc3c(c12)OCO3   No
4                            CCN(N=O)C(N)=O  Yes
5                             CCOC(=O)N(C)C  Yes
6  CC(=O)N(CC(O)CO)c1c(I)c(C(=O)NCCO)c(I)c(C(=O)NCC(O)CO)c1I (stereo not drawn)   No
7  COC(=O)C(N)Cc1ccc(Cl)cc1 (stereo not drawn)   No
8  CC(C)NCC(O)c1ccc(NS(C)(=O)=O)cc1 (stereo not drawn)   No

###

- Test system: CCRIS mutagenicity, Ames/micronucleus/aberration tests
- MEASUREMENT_DESCRIPTION: CCRIS mutagenicity studies
- TEST_SETTINGS: Test System: Ames Salmonella typhimurium; Strain/Indicator: TA98; Metabolic Activation: None; Method: Standard plate
The source made the active and inactive calls. The rule behind the calls is not given here.
Outcome codes: active, inactive

SMILES_RECORD	CAT
C[C@@H]1O[C@@H](OC[C@H]2O[C@@H](Oc3c(-c4ccc(O)c(O)c4)oc4cc(O)cc(O)c4c3=O)[C@H](O)[C@@H](O)[C@@H]2O)[C@H](O)[C@H](O)[C@H]1O	inactive
O=C(O)c1ccc([N+](=O)[O-])cc1[N+](=O)[O-]	active
O=[N+]([O-])C(Cl)(Cl)Br	inactive
C[C@]12CC[C@@H]3c4cc(O)c(O)cc4CC[C@H]3[C@@H]1CCC2=O	inactive

###

- System: CCRIS mutagenicity, Ames/micronucleus/aberration tests
- MEASUREMENT_DESCRIPTION: CCRIS mutagenicity studies
- TEST_SETTINGS: Test System: E. COLI; Strain/Indicator: WP2; Metabolic Activation: NONE; Method: STANDARD PLATE
- Source text: The CCRIS database contains chemical records with carcinogenicity, mutagenicity, tumor promotion, and tumor inhibition test results. It was developed by the National Cancer Institute (NCI). Data are derived from studies cited in primary journals, current awareness tools, NCI reports, and other sources. Test results have been reviewed by experts in carcinogenesis and mutagenesis. CCRIS provides historical information from the years 1985 - 2011. It is no longer updated. […]
Active and inactive are the calls of the source. How the calls were made is not given here.
Outcome codes: 1 for active, -1 for inactive

> print(dat)
                                    compound  cat
 1                            CCN(N=O)C(N)=O    1
 2                  CN(C)N=Nc1ccc(C(=O)O)cc1    1
 3                         Nc1ncc2[nH]cnc2n1    1
 4  CC(C)=CC1C(C(=O)O)C1(C)C (stereo not given)   -1
 5         NC(=O)N/N=C/c1ccc([N+](=O)[O-])o1    1
 6  CS(=O)CCC(=O)N1[C@@H](c2ccccc2O)SC[C@H]1C(=O)O (stereo not given in full)   -1
 7                                   O=S(O)O   -1
 8                                     N=NCO    1
 9                                   N=NCCCO    1
10  COCC1O[C@@H](O[C@@H]2C(COC)OC(OC)C(OC)C2OC)C(OC)C(OC)C1OC (stereo not given in full)   -1
11                CN(C)/N=N/c1nc[nH]c1C(N)=O    1
12                     [2H]C([2H])([2H])N=NO    1
13              CC(C)(CO)[C@@H](O)C(=O)NCCCO   -1
14  CCC(=O)OCC(=O)[C@@]1(OC(=O)CC)[C@H](C)C[C@H]2[C@H]3[C@H]([C@@H](O)C[C@@]21C)[C@@]1(C)C=CC(=O)C=C1C[C@H]3Cl   -1
15                     Nc1nc(NO)c2[nH]cnc2n1    1

These entries and their values trace back to PubChem BioAssay AID1259407.
